// provenance: ChEMBL document CHEMBL4270566

Sequence of the target: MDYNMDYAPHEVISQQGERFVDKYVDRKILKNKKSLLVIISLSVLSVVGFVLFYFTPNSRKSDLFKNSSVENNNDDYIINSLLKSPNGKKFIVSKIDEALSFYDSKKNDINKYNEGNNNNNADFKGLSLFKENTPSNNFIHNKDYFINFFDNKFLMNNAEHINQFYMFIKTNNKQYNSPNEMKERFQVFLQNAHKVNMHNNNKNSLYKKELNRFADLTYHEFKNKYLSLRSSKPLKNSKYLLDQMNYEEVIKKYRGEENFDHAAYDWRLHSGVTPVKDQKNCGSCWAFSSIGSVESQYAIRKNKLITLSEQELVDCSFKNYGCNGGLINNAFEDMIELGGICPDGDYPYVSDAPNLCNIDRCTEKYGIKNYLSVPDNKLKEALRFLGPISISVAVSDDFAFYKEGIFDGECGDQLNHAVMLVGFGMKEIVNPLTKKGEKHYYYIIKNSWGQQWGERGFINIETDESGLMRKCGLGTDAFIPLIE
metric-name: Ki
Please state the number and follow it with the unit.

Example entries and their recorded answers appear below.
INSERT INTO assay_data (compound, metric_name, result) VALUES
  ('CC(C)C[C@H](NC(=O)OC(C)(C)C)C(=O)N1CCC[C@@H]1C(=O)N1C(C(=O)O)C1C(=O)OCCc1ccccc1 (mixture of isomers)', 'Ki', '1.26 µM'),
  ('CC(C)C[C@H](NC(=O)OC(C)(C)C)C(=O)N1CCC[C@@H]1C(=O)N1C(C(=O)O)C1C(=O)OCC1CCCCC1 (mixture of isomers)', 'Ki', '0.45 µM'),
  ('CC(C)C[C@H](NC(=O)OC(C)(C)C)C(=O)N1CCC[C@@H]1C(=O)N1[C@H](C(=O)OCc2ccccc2)[C@H]1C(=O)OCc1ccccc1', 'Ki', '43.9 µM');

Requested read-out: Ki. Entry: CC(C)C[C@@H](NC(=O)OC(C)(C)C)C(=O)N1CCC[C@H]1C(=O)N1[C@H](C(=O)OCc2ccccc2)[C@H]1C(=O)OCc1ccccc1
28.3 µM
